test system: ARO; assay: Cytotoxicity against human Aro cells by MTT assay; assay type: functional, cell-based
endpoint: pIC50
# pIC50 is unitless: minus log10 of the molar concentration; print number only

Recorded pIC50 (molecule COc1cccc(-c2cc(O)c3c(ccc4[nH]ccc43)n2)c1 ): 6.00

====

system: A549; assay: Cytotoxicity against human A549 cells by MTT assay; type: functional, cell-based
Flag rule - IC50 less than 6 µM flags t; the remaining entries get f.

Illustrative cases are given below, each with its answer.
[
  {
    "query.smiles": "N#Cc1ccc(-c2cc(O)c3c(ccc4[nH]ccc43)n2)cc1",
    "assigned.class": "f"
  },
  {
    "query.smiles": "O=[N+]([O-])c1cccc(-c2cc(O)c3c(ccc4[nH]ccc43)n2)c1",
    "assigned.class": "f"
  },
  {
    "query.smiles": "Oc1ccnc2ccc3[nH]ccc3c12",
    "assigned.class": "f"
  }
]

From here, focus on the item given below.
IN: # check: IC50 < 6 µM for COC(=O)c1cc2c([nH]1)c(OC)cc1nc(-c3ccccc3)cc(O)c12
OUT: f
